System: NCI-H522 lung
experiment.description: NCI-60 one-dose screen, 48 h (100 = growth as untreated, 0 = no growth, -100 = all killed)
experimental.context: 10 µM
This is part of a sample that, as a whole, favours compounds with a hit. Of some 83,000 tested, about 20% had one in any assay.
Bucketed by reported growth, buckets being lo: < 70%; mid: ≥ 70% and < 90%; hi: ≥ 90%

molecule	label
Nc1nc2c(c3cnccc13)C(c1cccc(Cl)c1)Cc1cnccc1-2 (stereo not drawn)	lo
COC(=O)C(C)[C@H]1CC[C@@H]2[C@]1(C)CC=C1[C@]23C=C[C@]2(C[C@@H](OC(C)=O)CC[C@]12C)C(C(=O)OC)C3C(=O)OC (stereo partly drawn)	hi
OCC(O)C(O)CC1SCCS1 (stereo not drawn)	hi
C=C1CCC2C3(C)COC(c4ccccc4)OC3CCC2(C)C1C/C=C1/C(=O)OCC1O (stereo not drawn)	lo
CC1(C)NC(=S)NC1=O	hi
COc1ccc(OC)c(Cn2cc3c(c2)-c2oncc2CC3)c1	lo
COC(=O)C1CC(=O)N(C(=O)Nc2ccc(Cl)cc2Cl)C1 (stereo not drawn)	mid
CCN(CC)c1ccc2nc3ccc(N=Nc4ccc(O)cc4)cc3[n+](-c3ccccc3)c2c1	lo

Ask: Would you mind sorting `COc1cc(CCNc2cnc3cc(N)cc(N)c3n2)cc(OC)c1` into the appropriate category?
Reply: hi

Ask: Would you mind sorting CCCCCCCCCCN1CC2CCCCC2C1 (stereo not drawn) into the appropriate category?
Reply: lo

Ask: Would you mind sorting `CCNc1nnc(COc2ccc(CNC(=O)CCCC/C=C/C(C)C)cc2OC)o1` into the appropriate category?
Reply: mid
